# Tested on: SARS-CoV-2 (hCoV-19/Australia/VIC01/2020)
# PROCEDURE TEXT: SARS-CoV-2 microplaque inhibition assay in Vero-E6 cells
# Type: cell-based
# ASSAY CONDITIONS: Severe acute respiratory syndrome coronavirus 2, Vero C1008, read-out: IC50 SARS-CoV-2 infectious viral foci
OBSERVED PROPERTY: pIC50
Scale: pIC50 equals -log10([C]), with [C] in mol/L.

**Q:** Record request: pIC50 value, item CCN(CC)CCCC(C)Nc1ccnc2cc(Cl)ccc12 (stereo not shown) [chloroquine diphosphate, reference compound]
**A:** 6.19

---

# Test system: Genomic double stranded DNA (salmon)
# PROCEDURE TEXT: Fluorescence intercalator displacement (FID) assay, SYBR-safe probe
# ASSAY CONDITIONS: 20 μM compound, 30° C., lower % = stronger binding
OBSERVED PROPERTY: % Normalised Fluorescence with gDNA (%)
Kindly provide the numeric value in % only, without the unit symbol.

**Q:** Record request: % Normalised Fluorescence with gDNA value, item Cn1cc(NC(=O)c2cc(NC(=O)c3ccc(/C=C/c4cnc5ccccc5c4)cc3)cn2C)cc1C(=O)NCCOCCOCCO
**A:** 65

**Q:** Record request: % Normalised Fluorescence with gDNA value, item [H]/N=C(\CCNC(=O)c1cc(NC(=O)c2cc(NC(=O)c3ccc(C=Cc4ccc5nonc5c4)cc3)cn2C)cn1C)NCCN1CCN(C)CC1
**A:** 20

**Q:** Record request: % Normalised Fluorescence with gDNA value, item CC(C)NC(=N)CCNC(=O)c1cc(NC(=O)c2cc(NC(=O)c3ccc(/C=C/c4cnc5ccccc5c4)cc3)cn2C)cn1C
**A:** 3

**Q:** Record request: % Normalised Fluorescence with gDNA value, item CCCCCNC(=N)CCNC(=O)c1cc(NC(=O)c2cc(NC(=O)c3ccc(/C=C/c4cnc5ccccc5c4)cc3)cn2C)cn1C
**A:** 21

**Q:** Record request: % Normalised Fluorescence with gDNA value, item CCCCCCCCCCCCC[N+](C)(C)CCNC(=O)c1cc(NC(=O)c2cc(NC(=O)c3ccc(/C=C/c4cnc5ccccc5c4)cc3)cn2C)cn1C
**A:** 94

**Q:** Record request: % Normalised Fluorescence with gDNA value, item Cn1cc(NC(=O)c2cc(NC(=O)c3ccc(/C=C/c4cnc5ccccc5c4)cc3)c[nH]2)cc1C(=O)NCCC(=N)N
**A:** 14

**Q:** Record request: % Normalised Fluorescence with gDNA value, item CC(C)NC(=O)c1cc(NC(=O)c2cc(NC(=O)c3ccc(/C=C/c4cnc5ccccc5c4)cc3)cn2C)cn1C
**A:** 15

---

# Tested on: PolyAU double stranded RNA
# PROCEDURE TEXT: Fluorescence intercalator displacement (FID) assay, SYBR-safe probe
# ASSAY CONDITIONS: 20 μM compound, 30° C., lower % = stronger binding
So I've got a bunch of compounds here, and I need their % Normalised Fluorescence with polyAU RNA values.
Kindly provide the numeric value in % only, without the unit symbol.

**Q:** Record request: % Normalised Fluorescence with polyAU RNA value, item CCCCCCC/N=C(/CCNC(=O)c1cc(NC(=O)c2cc(NC(=O)c3ccc(/C=C/c4cnc5ccccc5c4)cc3)cn2C)cn1C)NCCCCCCC [Ia37]
**A:** 68

**Q:** Record request: % Normalised Fluorescence with polyAU RNA value, item CNC(=O)c1cc(NC(=O)c2cc(NC(=O)c3ccc(/C=C/c4ccc(N(C)C)cc4)nc3)cn2C)cn1C [IVa13]
**A:** 83

**Q:** Record request: % Normalised Fluorescence with polyAU RNA value, item CNC(=N)CCNC(=O)c1cc(NC(=O)c2cc(NC(=O)c3ccc(/C=C/c4cnc5ccccc5c4)cc3)cn2C)cn1C [Ia27]
**A:** 17

**Q:** Record request: % Normalised Fluorescence with polyAU RNA value, item [H]/N=C(\CCNC(=O)c1cc(NC(=O)c2cc(NC(=O)c3ccc(C=Cc4ccc5nonc5c4)cc3)cn2C)cn1C)NCCCN(C)C [Ia46]
**A:** 2

**Q:** Record request: % Normalised Fluorescence with polyAU RNA value, item Cn1cc(NC(=O)c2cc(NC(=O)c3ccc(/C=C/c4ccc5nonc5c4)cc3)c[nH]2)cc1C(=O)NCCC(=N)N [IIIa1]
**A:** 18

**Q:** Record request: % Normalised Fluorescence with polyAU RNA value, item C/N=C(/CCNC(=O)c1cc(NC(=O)c2cc(NC(=O)c3ccc(/C=C/c4ccc5ccccc5c4)cc3)cn2C)cn1C)NC [Ia7]
**A:** 24

**Q:** Record request: % Normalised Fluorescence with polyAU RNA value, item [H]/N=C(\CCNC(=O)c1cc(NC(=O)c2cc(NC(=O)c3ccc(C=Cc4ccc(C#N)cc4)cc3)cn2C)cn1C)NC(C)C [Ia17]
**A:** 28

---

# System: Scedosporium spp.
# PROCEDURE TEXT: Expanded set of filamentous fungi, MIC broth microdilution (CLSI)
# Assay type: cell-based
# ASSAY CONDITIONS: isolate S3, MIC at 50% inhibition
OBSERVED PROPERTY: MIC50

**Q:** Record request: MIC50 value, item C/N=C(\CCNC(=O)c1cc(NC(=O)c2cc(NC(=O)c3ccc(/C=C/c4ccc(N(C)C)cc4)nc3)cn2C)cn1C)NC
**A:** 1 to 8 µg/mL

**Q:** Record request: MIC50 value, item CNC(=N)CCNC(=O)c1cc(NC(=O)c2cc(NC(=O)c3ccc(/C=C/c4cnc5ccccc5c4)cc3)cn2C)cn1C
**A:** ≤ 1 µg/mL

**Q:** Record request: MIC50 value, item [H]/N=C(\CCNC(=O)c1cc(NC(=O)c2cc(NC(=O)c3ccc(C=Cc4ccc(N(C)C)cc4)nc3)cn2C)cn1C)NC
**A:** ≤ 1 µg/mL

**Q:** Record request: MIC50 value, item C/N=C(/CCNC(=O)c1cc(NC(=O)c2cc(NC(=O)c3ccc(/C=C/c4cnc5ccccc5c4)cc3)cn2C)cn1C)NC
**A:** ≤ 1 µg/mL

---

# System: Staphylococcus aureus (ATCC 43300)
# PROCEDURE TEXT: Antibacterial MIC, broth microdilution (CLSI)
# Format: cell-based
# ASSAY CONDITIONS: Staphylococcus aureus, ATCC43300; read-out: MIC80 S. aureus
So I've got a bunch of molecules here, and I need their MIC80 values.

**Q:** Return MIC80 measured with Staphylococcus aureus (ATCC 43300) given this molecule: Cn1cc(NC(=O)c2cc(NC(=O)c3ccc(/C=C/c4ccc5nonc5c4)cc3)c[nH]2)cc1C(=O)NCCC(=N)N
**A:** < 5 µM

**Q:** Return MIC80 measured with Staphylococcus aureus (ATCC 43300) given this molecule: Cn1cc(NC(=O)c2cc(NC(=O)c3ccc(/C=C/c4ccc5nonc5c4)cc3)c[nH]2)cc1C(=O)NCCN1CCOCC1
**A:** 5 to 25 µM

**Q:** Return MIC80 measured with Staphylococcus aureus (ATCC 43300) given this molecule: Cn1cc(NC(=O)c2cc(NC(=O)c3ccc(/C=C/c4cnc5ccccc5c4)cc3)cn2C)cc1C(=O)NCCC(=N)N1CCOCC1
**A:** < 5 µM

---

So I've got a bunch of compounds here, and I need their IC50 values.
# Tested on: SARS-CoV-2 (hCoV-19/Australia/VIC01/2020)
# PROCEDURE TEXT: SARS-CoV-2 microplaque inhibition assay in Vero-E6 cells
# Type: cell-based
# ASSAY CONDITIONS: Severe acute respiratory syndrome coronavirus 2, Vero C1008; plaque inhibition, Vero-E6 cells; read-out: IC50 SARS-CoV-2

**Q:** Record request: IC50 value, item COc1ccc(/C=C/c2ccc(C(=O)Nc3cc(C(=O)Nc4cc(C(=O)NCCC(=N)NC(C)C)n(C)c4)n(C)c3)cn2)cc1
**A:** 8 to 32 µM

**Q:** Record request: IC50 value, item [H]/N=C(\CCNC(=O)c1cc(NC(=O)c2cc(NC(=O)c3ccc(C=Cc4ccc(N(C)C)cc4)nc3)cn2C)cn1C)NC
**A:** 2 to 8 µM

**Q:** Record request: IC50 value, item CN(C)c1ccc(/C=C/c2ccc(C(=O)Nc3c[nH]c(C(=O)Nc4c[nH]c(C(=O)NCCC(=N)N)c4)c3)cn2)cc1
**A:** < 2 µM

**Q:** Record request: IC50 value, item CN(C)c1ccc(/C=C/c2ccc(C(=O)Nc3c[nH]c(C(=O)Nc4cc(C(=O)NCCC(=N)N)n(C)c4)c3)cn2)cc1
**A:** < 2 µM

**Q:** Record request: IC50 value, item CC/N=C(\N)CCNC(=O)c1cc(NC(=O)c2cc(NC(=O)c3ccc(/C=C/c4ccc5nonc5c4)cc3)cn2C)cn1C
**A:** 8 to 32 µM

**Q:** Record request: IC50 value, item CC(C)/N=C(\N)CCNC(=O)c1cc(NC(=O)c2cc(NC(=O)c3ccc(/C=C/c4ccc5nonc5c4)cc3)cn2C)cn1C
**A:** 8 to 32 µM

**Q:** Record request: IC50 value, item C/N=C(/CCNC(=O)c1cc(NC(=O)c2cc(NC(=O)c3ccc(/C=C/c4nc5ccccc5s4)cc3)cn2C)cn1C)NC
**A:** 8 to 32 µM

**Q:** Record request: IC50 value, item CN(C)c1ccc(/C=C/c2ccc(C(=O)Nc3cc(C(=O)Nc4c[nH]c(C(=O)NCCC(=N)N)c4)n(C)c3)cn2)cc1
**A:** < 2 µM

**Q:** Record request: IC50 value, item [H]/N=C(\CCNC(=O)c1cc(NC(=O)c2cc(NC(=O)c3ccc(C=Cc4ccc(N(C)C)cc4)nc3)cn2C)cn1C)NCC
**A:** 2 to 8 µM
